- Tested on: Pyricularia oryzae
- Method summary: Fungicidal activity against Magnaporthe oryzae in 7 days old young rice seedlings compound sprayed 1 day after inoculation assessed as efficacy against blast disease measured as lesion level at 200 ppm measured after 7 days of inoculation
- Type: functional
Measured Efficacy accompanies every entry in the list below.

CCOC(=O)C1C(C)(C)C1(Cl)Cl (configuration not stated)    <5%
CC(NC(=O)C1(C)C(C)(C)C1(Cl)Cl)c1ccc(Br)cc1 (configuration not stated)    0%
CC1(C)C(Cl)(Cl)C1(C)C(=O)O (configuration not stated)    <20%

Okay, now this molecule:
// fetch Efficacy given entry CC(NC(=O)C1(C)C(C)(C)C1(Cl)Cl)c1ccccc1 (configuration not stated)
<5%

###

Measured Efficacy values are reported for all entries that follow.
- Test system: Pyricularia oryzae
- Method summary: Fungicidal activity against Magnaporthe oryzae in 7 days old young rice seedlings compound sprayed 1 day after inoculation assessed as efficacy against blast disease measured as lesion level at 200 ppm measured after 7 days of inoculation
- Type: functional

Example cases with answers are listed next.
CC(NC(=O)C1(C)C(C)(C)C1(Cl)Cl)c1ccc(Cl)cc1 (configuration not stated)    0%
CC1(C)C(CO)C1(Cl)Cl (configuration not stated)    <5%
CC1(C)C(C(=O)Nc2ccccc2)C1(Cl)Cl (configuration not stated)    >40%
CC1(C)C(C#N)C1(Cl)Cl (configuration not stated)    <30%
CC1(C)C(C(=O)Oc2ccccc2)C1(Cl)Cl (configuration not stated)    <20%

Name the recorded Efficacy of the compound listed here: CC1(C)C(COC(=O)Nc2ccccc2)C1(Cl)Cl (configuration not stated)
<5%

Supply recorded Efficacy for CC1(C)C(COC(=O)c2ccccc2)C1(Cl)Cl (configuration not stated) here.
<5%

###

- Test system: Pyricularia oryzae
- Method summary: Fungicidal activity against Magnaporthe oryzae in 7 days old young rice seedlings compound sprayed 1 day after inoculation assessed as efficacy against blast disease measured as lesion level at 200 ppm measured after 7 days of inoculation
- Format: functional
# Efficacy per record follows
Write the value in % as a bare number.

CC(NC(=O)C1(C(C)C)CC1(Cl)Cl)c1ccc(Cl)cc1 (stereo not drawn)    0

Please find the next compound below.
Given CC[C@]1(C(=O)NC(C)c2ccc(Cl)cc2)[C@H](C)C1(Cl)Cl (stereo partly drawn) [CARPROPAMID] , report its Efficacy on Pyricularia oryzae.
0

###

We begin with a simple list: items and their reported Efficacy.
- Test system: Pyricularia oryzae
- Method summary: Fungicidal activity against Magnaporthe oryzae in 7 days old young rice seedlings compound sprayed 1 day after inoculation assessed as efficacy against blast disease measured as lesion level at 200 ppm measured after 7 days of inoculation
- Format: functional

Field: example entries. Status: answers known.
CNC(=O)C1C(C)(C)C1(Cl)Cl (stereo not drawn)    <40%
CC1(C)C(C(=O)O)C1(Cl)Cl (stereo not drawn)    <5%

Moving on to another molecule below.
Supply reported Efficacy belonging to this molecule: CCC1(CC)C(C(=O)O)C1(Cl)Cl (stereo not drawn)
<30%
